# experimental system: TACE (Homo sapiens)
# Sequence (P78536 215-824): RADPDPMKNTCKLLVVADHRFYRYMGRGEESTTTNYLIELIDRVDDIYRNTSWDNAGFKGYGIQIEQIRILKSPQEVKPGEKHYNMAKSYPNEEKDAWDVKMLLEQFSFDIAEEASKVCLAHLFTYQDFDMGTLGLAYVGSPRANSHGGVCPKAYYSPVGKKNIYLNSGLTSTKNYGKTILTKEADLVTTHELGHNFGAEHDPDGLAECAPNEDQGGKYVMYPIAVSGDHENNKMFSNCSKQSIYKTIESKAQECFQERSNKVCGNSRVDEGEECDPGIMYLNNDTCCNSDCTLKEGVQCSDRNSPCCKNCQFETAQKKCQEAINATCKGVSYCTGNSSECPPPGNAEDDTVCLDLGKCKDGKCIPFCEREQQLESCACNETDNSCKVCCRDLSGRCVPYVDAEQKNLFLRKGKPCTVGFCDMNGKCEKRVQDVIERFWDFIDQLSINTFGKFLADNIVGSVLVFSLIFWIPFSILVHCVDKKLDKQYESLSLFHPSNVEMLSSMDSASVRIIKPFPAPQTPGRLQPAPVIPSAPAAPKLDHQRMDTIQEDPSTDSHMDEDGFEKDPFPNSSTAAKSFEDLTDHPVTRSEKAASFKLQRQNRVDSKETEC
assay metric: IC50 (nM)
Entry rule: numbers only, all in nM.

Consider the compound COc1ccc(S(=O)(=O)N(Cc2ccccc2)[C@@H]2CCCC[C@H]2C(=O)NO)cc1 (relative stereo) tested on TACE (Homo sapiens); state its IC50.
1610

###

Sequence of the target: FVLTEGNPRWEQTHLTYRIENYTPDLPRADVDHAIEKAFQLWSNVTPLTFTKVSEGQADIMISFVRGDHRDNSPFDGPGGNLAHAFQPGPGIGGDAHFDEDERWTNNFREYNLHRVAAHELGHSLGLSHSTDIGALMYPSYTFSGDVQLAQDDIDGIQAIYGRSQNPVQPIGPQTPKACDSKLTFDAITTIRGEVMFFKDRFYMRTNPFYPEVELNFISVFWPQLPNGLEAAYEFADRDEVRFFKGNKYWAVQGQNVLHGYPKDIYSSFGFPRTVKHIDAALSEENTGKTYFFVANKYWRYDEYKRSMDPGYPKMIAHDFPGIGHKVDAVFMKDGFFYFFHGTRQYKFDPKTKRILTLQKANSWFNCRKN
assay metric: pIC50
The meaning of pIC50 here: minus log10 of the concentration in molar units.

Note pIC50 for the compound shown: COc1ccc(S(=O)(=O)N(Cc2ccccc2)[C@H]2CCCC[C@H]2C(=O)NO)cc1 (relative stereo)
6.21

Origin of measurements: patent EP0934259B1
